System: P388 leukemia ip, CD2F1 mice, survival T/C
test summary: NCI In Vivo Anticancer Drug Screen. Data for tumor model P388 Leukemia (intraperitoneal) in CD2F1 (CDF1) mice
test conditions: endpoint: median survival time; dose: 50.0 mg/kg/injection; schedule: Q01DX009 (ip); vehicle: distilled water + Tween-80; higher = longer survival
Method: The antitumor activity of compounds was measured in mice bearing transplantable tumors. Survival or tumor size were measured and the results are expressed as the measurement made in the treated group (T) divided by the measurement made in the vehicle treated control group (C). The tumor model used in this assay is P388 Leukemia (intraperitoneal) in CD2F1 (CDF1) mice
Toxic doses and inconclusive results are not listed.
Entries annotated with measured T/C

Examples with answers:
In [3]: df
Out[3]:
                                   compound            result
0  CC(C)CCCCCCCCCCCCC(=O)NCC(=O)NC1C(C)OC(Nc2ncnc3c2ncn3C)C(O)C1O (stereo not drawn)   91 % of control
1  Cc1c(COC(=O)NC(C)C)c(COC(=O)NC(C)C)c2c3ccccc3c3ccccc3n12  110 % of control

Now for the compound whose T/C we want.
Consider the compound shown here: COC(=O)C(Cc1cnc2nc(N)nc(N)c2n1)C(=O)OC What is its recorded T/C?
104 % of control

====

Test system: P388 leukemia ip, CD2F1 mice, survival T/C
test summary: NCI In Vivo Anticancer Drug Screen. Data for tumor model P388 Leukemia (intraperitoneal) in CD2F1 (CDF1) mice
test conditions: endpoint: median survival time; dose: 100.0 mg/kg/injection; schedule: Q04DX002 (ip); vehicle: saline with Tween-80; higher = longer survival
Toxic doses and inconclusive results are not listed.
measured endpoint: T/C

Some solved entries appear below for comparison.
In [3]: df
Out[3]:
                                   compound            result
0       CCOC(=O)/C(O)=C/C1=CC(=O)CC(C)(C)C1  110 % of control
1  COc1ccc(C2[C@H](C(=O)O)c3ccccc3C(=O)N2Cc2ccccc2)cc1 (stereo partly specified)  101 % of control
2  O=C1C(C(=NC2CCCCC2)c2ccccc2)=C(O)c2ccccc21  104 % of control
3            O=C1NNC(c2ccccc2)=Nc2[nH]ncc21   96 % of control
4       CN=C(N)NN=C(c1ccc(C)cc1)c1ccc(C)cc1   96 % of control

// below: T/C requested for another compound
What does the record list as T/C for O=c1[nH]cnc2c1CCc1ccccc1-2 ?
93 % of control

====

Tested on: P388 leukemia ip, CD2F1 mice, survival T/C
test summary: NCI In Vivo Anticancer Drug Screen. Data for tumor model P388 Leukemia (intraperitoneal) in CD2F1 (CDF1) mice
test conditions: endpoint: median survival time; dose: 25.0 mg/kg/injection; schedule: Q01DX009 (ip); vehicle: saline; higher = longer survival
Inconclusive results and toxic doses are left out.
measured endpoint: T/C

Example cases with answers are listed next.
In [3]: df
Out[3]:
                                   compound            result
0  NCCNCCNCCNCCN (tested in a mixture with another compound)  118 % of control
1          C=CCN(CC=C)C(CC(=O)C(C)(C)C)=NCC  106 % of control
2  COc1cc(C2=N/C(=C\c3ccccc3O)C(=O)O2)cc(OC)c1OC   94 % of control
3  COCCn1c2nc(=O)n(-c3ccccc3)c(=O)c-2nc2c1CCCC2  100 % of control
4  CN(C)CCC[N+](C)(C)Cc1ccc(C[N+](C)(C)CCC[N+](C)(C)Cc2ccc(CCl)cc2)cc1   92 % of control
5                           N#CC[n+]1ccccc1  100 % of control

If you can, please state the reported T/C value of CCCC(=O)NN=C(C)C .
109 % of control

I have this compound here, Nc1cn(C2CC(O)C(CO)O2)c(=O)[nH]c1=O (stereo unspecified) , and I need its recorded T/C.
106 % of control

Give the measured T/C of CN(C)CC1(C)C(=O)N(C)C(=O)N(C2CCCCC2)C1=O (stereo unspecified) .
100 % of control

// query T/C value for entry C[N+]1(CCC(=O)c2ccccc2)CCCCC1
107 % of control

Return reported T/C; argument: CC/C(C)=N/NC(=S)NC
101 % of control

Look up T/C for this compound: CCCCN(CCCC)CCNc1ccc(C)c2sc3ccccc3c(=O)c12
102 % of control

Can you share its T/C? I mean this compound: Cc1cc[n+](C)c(-c2ccccc2)c1
113 % of control

What value of T/C has been recorded for this entry: O=[N+]([O-])c1cccc2c[n+](Cc3ccc(Br)cc3)ccc12
118 % of control

Query: T/C; subject: C=CCCCCCCCCCCCCCC1=NCC[N+]1(CCO)CC(O)COc1cc(Cl)c(Cl)c(Cl)c1 (stereo unspecified)
106 % of control

So what's the measured T/C for this one? NC(=S)c1ncn(C2OC(CO)C(O)C2O)c1N (stereo unspecified)
101 % of control

====

System: P388 leukemia ip, CD2F1 mice, survival T/C
test summary: NCI In Vivo Anticancer Drug Screen. Data for tumor model P388 Leukemia (intraperitoneal) in CD2F1 (CDF1) mice
test conditions: endpoint: median survival time; dose: 100.0 mg/kg/injection; schedule: Q04DX003 (ip); vehicle: saline with Tween-80; higher = longer survival
Toxic doses and inconclusive results are not listed.
Known T/C of a selection of compounds

Recorded results for 7 compounds are shown here.
>>> df
                                   compound                              study_system            result
0                              CCCCCCCCCSCC  P388 leukemia ip, CD2F1 mice, survival T/C  109 % of control
1  CC(C)N(C(=S)/N=C1/SCS(=O)(=O)N1Cc1ccccc1)C(C)C  P388 leukemia ip, CD2F1 mice, survival T/C   95 % of control
2  O=[N+]([O-])c1ccc(S(=O)(=O)Nc2c([N+](=O)[O-])cc([N+](=O)[O-])c3ccccc23)cc1  P388 leukemia ip, CD2F1 mice, survival T/C   95 % of control
3                            CCCN(CCC)CCCCO  P388 leukemia ip, CD2F1 mice, survival T/C  100 % of control
4       O=C(c1ccccc1)c1ccc([N+](=O)[O-])cc1  P388 leukemia ip, CD2F1 mice, survival T/C  100 % of control
5  COC(=O)c1ccc(COc2ccc([N+](=O)[O-])cc2Cl)cc1  P388 leukemia ip, CD2F1 mice, survival T/C  105 % of control
6  CSc1ncnc2c1ncn2C1OC(CO)C(O)OC1O (stereo not drawn)  P388 leukemia ip, CD2F1 mice, survival T/C  108 % of control

Kindly consider the entry below.
Record request: T/C value, item CCCc1c(Cl)nc(Cl)nc1Cl
113 % of control

====

Listed here are molecules together with their documented T/C.
Test system: P388 leukemia ip, CD2F1 mice, survival T/C
test summary: NCI In Vivo Anticancer Drug Screen. Data for tumor model P388 Leukemia (intraperitoneal) in CD2F1 (CDF1) mice
test conditions: endpoint: median survival time; dose: 200.0 mg/kg/injection; schedule: Q01DX005 (ip); vehicle: Klucel (hydroxypropylcellulose) (HPC); higher = longer survival
Experimental: The antitumor activity of compounds was measured in mice bearing transplantable tumors. Survival or tumor size were measured and the results are expressed as the measurement made in the treated group (T) divided by the measurement made in the vehicle treated control group (C). The tumor model used in this assay is P388 Leukemia (intraperitoneal) in CD2F1 (CDF1) mice
Inconclusive results and toxic doses are left out.

>>> df
                                   molecule  measured_endpoint            result
0  COc1cc([N+](=O)[O-])c(S(=O)(=O)O)cc1N=N/C=N/Nc1cc(S(=O)(=O)O)c([N+](=O)[O-])cc1OC                T/C  108 % of control
1            CC1=NN(C(=O)c2ccccc2)C(C)(C)C1                T/C   97 % of control

Lab note: next molecule to report on.
Identify the measured T/C of CC(C)NCC1CCc2cc(CO)c([N+](=O)[O-])cc2N1 (stereo not drawn) for P388 leukemia ip, CD2F1 mice, survival T/C.
106 % of control

====

Test system: P388 leukemia ip, CD2F1 mice, survival T/C
test summary: NCI In Vivo Anticancer Drug Screen. Data for tumor model P388 Leukemia (intraperitoneal) in CD2F1 (CDF1) mice
test conditions: endpoint: median survival time; dose: 400.0 mg/kg/injection; schedule: Q04DX003 (ip); vehicle: saline; higher = longer survival
Toxic doses and inconclusive results are not listed.
measured endpoint: T/C

Worked cases, T/C given:
>>> print(df.to_string())
                          smiles_code            result
0          N#CC(C#N)/C=C/[Se]c1ccccc1  109 % of control
1  C=CCN(NC(=O)c1ccccc1)C(=O)c1ccccc1  110 % of control

// query T/C value for entry O=C1NC(=O)C2=C1NCCN2
99 % of control

Quick check: T/C of CNC(=O)c1ccccc1NC(=O)CCC(=O)O ?
100 % of control
